Form field: Population Mitotic Cells (%) (one value per entry).
- Tested on: HEK-293T
- experiment.description: Multiplex assay against HEK293T
- Format: toxicity, cell-based
- condition: human, 24 h, 10 µM, compound concentration 10 uM, replicate 1
Quick reminder: number only, in %, skip the unit.

Here's what some known entries look like.
Cc1cc(=O)n(C)c2cc(N3C(=O)CC[C@H](NS(=O)(=O)CC(C)C)[C@H]3c3ccc(Cl)cc3)ccc12 = 65
S=C(NCCCc1c[nH]cn1)NCCCN(Cc1ccc(Cl)c(Cl)c1)c1ccc(Br)cn1 = 14
CN(C)C/C=C/C(=O)Nc1ccc(C(=O)N2CCCC(Nc3ncc(Cl)c(-c4c[nH]c5ccccc45)n3)C2)cc1 (stereo not drawn) = 25
Cl.Cl.OCCOCCN1CCN(C(c2ccccc2)c2ccc(Cl)cc2)CC1 (stereo not drawn) [HYDROXYZINE HYDROCHLORIDE] = 70
COc1c(Nc2ccc(S(C)(=O)=O)nc2C)ncnc1OC1CCN(C(=O)OC(C)C)CC1 = 55

Incoming: I'm curious: which Population Mitotic Cells (%) was measured for CCCCC[C@H](O)/C=C/[C@H]1[C@H](O)CC(=O)[C@@H]1CCCCCCC(=O)O tested on HEK-293T?
Outgoing: 67

Incoming: I'm curious: which Population Mitotic Cells (%) was measured for CSc1nc(NC2CCCC2)c([N+](=O)[O-])c(NC2CCCC2)n1 tested on HEK-293T?
Outgoing: 72

Incoming: I'm curious: which Population Mitotic Cells (%) was measured for CCn1c(-c2nc3cc(C(=O)N4CCCC(N)C4)ccc3n2C)cc2ccccc21.Cl (stereo not drawn) tested on HEK-293T?
Outgoing: 48
